Data provenance is patent US9029092B2.

Test system: biotinylated HRP
ASSAY_NOTES: Model system for selection of SSIA (AK1/streptavidin BSA microparticles + biotinylated HRP)
Format: biochemical, horseradish
TEST_CONTEXT: Btn-HRP 1 ng/mL vs 0; SSIA 100 μM final
Record form. Attribute: S1/S0. Fill in for each entry.
In your answer, state the number alone without any accompanying words.

Give the reported S1/S0 for "COc1cc(/C=C/C(=O)O)ccc1O" (system: biotinylated HRP).
2.3

Subsequent entry: Nc1ccc(C(=O)O)cc1O [4-Amino-3-hydroxy-benzoic acid]
2.9

Subsequent entry: Cc1c(O)cc2c(c1C)O[C@](C)(CCC[C@H](C)CCC[C@H](C)CCCC(C)C)CC2 [(+)-gamma-Tocopherol]
1.8

Subsequent entry: "CC1(C)CC(O)CC(C)(C)N1[O]"
1.5

Subsequent entry: "N[C@@H](CCC(=O)N[C@@H](CS)C(=O)NCC(=O)O)C(=O)O"
2.1

Subsequent entry: Oc1ccc(O)c(Cl)c1 [2-chloro-1,4-dihydroxybenzene]
1.1

Subsequent entry: Cc1c(C)c2c(c(C)c1O)CCC(C)(C(=O)O)O2 (centres unmarked)
8.4

Subsequent entry: O=C(O)CCCC[C@@H]1CCSS1 (racemic)
2

Subsequent entry: Cl.Nc1ccc(O)cc1O [4-aminoresorcinol hydrochloride]
1.7

Subsequent entry: "Oc1ccc(C=Cc2cc(O)cc(O)c2)cc1"
1.3

Subsequent entry: "Nc1ccccc1O"
5.5

Subsequent entry: "COc1cc(C(=O)O)cc(OC)c1O"
1.6

Subsequent entry: "CC1(C)OC[C@@H]([C@H]2OC(=O)C(O)=C2O)O1"
3.6

Subsequent entry: "CC(=O)N[C@@H](CS)C(=O)O"
1.1

Subsequent entry: "N[C@@H](CS)C(=O)O"
1.6

Subsequent entry: "Oc1ccc(Cl)cc1O"
2.2

Subsequent entry: CCCCCCCCCCCCCCCC(=O)OC[C@H](O)[C@H]1OC(=O)C(O)=C1O [Ascorbic Acid 6-palmitate]
4

Subsequent entry: "COc1ccc2[nH]cc(CCNC(C)=O)c2c1"
1.3

Subsequent entry: NNC(=O)c1cccnc1 [Nicotinic Hydrazide]
1.4

Subsequent entry: "O=c1[nH]c(=O)c2[nH]c(=O)[nH]c2[nH]1"
1.8
